target: T1, Cynomolgus CD3εδ Fc heterodimer (Cy CD3ε Fc + CD3δ Fc-HIS) (cynomolgus, UniProt Q95LI5 22-117; Q95LI8 22-100); assay: BLI (Octet), Fab monovalent, pH 7.4
T1 construct: range 22-117;range 22-100; Made in HEK 293 cells with a heterologous signal peptide; also called Cy CD3εδ-Fc; cyno CD3εδ Fc; not shown: Fc; Fc followed by HIS tag
T1 sequence (Q95LI5 22-117, stated change not applied, form in doubt, chain 1 of 2): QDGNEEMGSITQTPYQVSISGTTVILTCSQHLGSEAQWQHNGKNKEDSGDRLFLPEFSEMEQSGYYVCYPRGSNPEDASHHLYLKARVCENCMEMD
T1 sequence (Q95LI8 22-100, stated change not applied, form in doubt, chain 2 of 2): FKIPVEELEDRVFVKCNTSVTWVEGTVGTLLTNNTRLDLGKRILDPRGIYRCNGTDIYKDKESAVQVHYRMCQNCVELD
measurement.label: Kd (nM)
Express your answer in nM, writing the number without its unit.

Field: example entries. Status: answers known.
Antibody No. A002 (ADI-50024) Fab (Fab, V domains shown, Fab by papain digestion of the IgG1) VH: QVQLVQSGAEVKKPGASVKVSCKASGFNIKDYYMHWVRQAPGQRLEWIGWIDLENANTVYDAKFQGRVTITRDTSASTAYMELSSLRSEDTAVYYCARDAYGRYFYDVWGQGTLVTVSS VL: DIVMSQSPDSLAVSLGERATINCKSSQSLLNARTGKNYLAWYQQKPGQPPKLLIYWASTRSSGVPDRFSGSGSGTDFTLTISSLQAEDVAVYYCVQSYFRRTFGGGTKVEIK : 1.3
Antibody No. A003 (ADI-26913) Fab (Fab, V domains shown, Fab by papain digestion of the IgG1) VH: QVQLVQSGAEVKKPGASVKVSCKASGFNIKDYYMHWVRQAPGQRLEWMGWIDLENANTIYDAKFQGRVTITRDTSASTAYMELSSLRSEDTAVYYCARDQYGRYFYDVWGQGTLVTVSS VL: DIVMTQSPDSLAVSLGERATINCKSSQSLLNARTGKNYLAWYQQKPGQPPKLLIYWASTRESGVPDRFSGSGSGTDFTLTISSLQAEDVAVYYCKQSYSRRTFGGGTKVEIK : 28
Antibody No. V016 (ADI-76359) Fab (Fab, V domains shown, Fab by papain digestion of the IgG1) VH: QVQLVQSGAEVKKPGASVKVSCKASGFDIKDYYMHWVRQAPGQRLEWMGWIDLENANTIYDAKFQGRVTITRDTSASTAYMELSSLRSEDTAVYYCGRDAYGRYFYDVWGQGTLVTVSS VL: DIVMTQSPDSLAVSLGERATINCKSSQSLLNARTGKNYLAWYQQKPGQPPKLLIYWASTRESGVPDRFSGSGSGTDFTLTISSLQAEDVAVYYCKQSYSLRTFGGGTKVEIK : 75
Antibody No. V015 (ADI-76358) Fab (Fab, V domains shown, Fab by papain digestion of the IgG1) VH: QVQLVQSGAEVKKPGASVKVSCKASGFNIKDYYMHWVRQAPGQRLEWMGWIDLENADTIYDAKFQGRVTITRDTSASTAYMELSSLRSEDTAVYYCARDQYGRYFYDVWGQGTLVTVSS VL: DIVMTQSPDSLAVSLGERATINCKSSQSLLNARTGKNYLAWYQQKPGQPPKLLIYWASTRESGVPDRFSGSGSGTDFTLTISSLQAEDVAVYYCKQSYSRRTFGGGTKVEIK : 58
Antibody No. V009 (ADI-70326) Fab (Fab, V domains shown, Fab by papain digestion of the IgG1) VH: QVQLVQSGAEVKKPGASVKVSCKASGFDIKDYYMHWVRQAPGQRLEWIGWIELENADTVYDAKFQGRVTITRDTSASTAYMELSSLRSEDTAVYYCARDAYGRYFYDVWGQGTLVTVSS VL: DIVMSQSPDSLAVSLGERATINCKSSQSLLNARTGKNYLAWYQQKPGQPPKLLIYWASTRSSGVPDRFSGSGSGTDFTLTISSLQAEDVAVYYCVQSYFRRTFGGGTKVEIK : 1.9

Ask: Give the reported value of Kd for this record: Antibody No. V017 (ADI-76360) Fab (Fab, V domains shown, Fab by papain digestion of the IgG1) VH: QVQLVQSGAEVKKPGASVKVSCKASGFNIKDYYMHWVRQAPGQRLEWMGWIDLENADTIYDAKFQGRVTITRDTSASTAYMELSSLRSEDTAVYYCGRDAYGRYFYDVWGQGTLVTVSS VL: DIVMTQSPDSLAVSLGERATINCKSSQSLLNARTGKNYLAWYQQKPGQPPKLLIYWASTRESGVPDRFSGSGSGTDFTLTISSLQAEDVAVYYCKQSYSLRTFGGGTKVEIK
Result: 96

Ask: Give the reported value of Kd for this record: Antibody No. V013 (ADI-70330) Fab (Fab, V domains shown, Fab by papain digestion of the IgG1) VH: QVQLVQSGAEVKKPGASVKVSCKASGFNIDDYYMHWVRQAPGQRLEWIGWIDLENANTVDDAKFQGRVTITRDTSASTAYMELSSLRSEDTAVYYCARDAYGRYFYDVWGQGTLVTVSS VL: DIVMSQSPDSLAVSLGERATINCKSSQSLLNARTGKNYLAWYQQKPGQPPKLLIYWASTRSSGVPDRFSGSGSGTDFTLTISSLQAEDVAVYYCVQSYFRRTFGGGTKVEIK
Result: 2.4

Ask: Give the reported value of Kd for this record: Antibody No. A005 (ADI-26921) Fab (Fab, V domains shown, Fab by papain digestion of the IgG1) VH: QVQLVQSGAEVKKPGASVKVSCKASGFNIKDYYMHWVRQAPGQRLEWMGWIDLEEGNTIYDAKFQGRVTITRDTSASTAYMELSSLRSEDTAVYYCARDAYGRYFYDVWGQGTLVTVSS VL: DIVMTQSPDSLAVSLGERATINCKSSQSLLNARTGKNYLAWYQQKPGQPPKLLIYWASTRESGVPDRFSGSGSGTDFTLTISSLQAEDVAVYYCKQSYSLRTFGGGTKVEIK
Result: 39

Ask: Give the reported value of Kd for this record: Antibody No. A004 (ADI-26920) Fab (Fab, V domains shown, Fab by papain digestion of the IgG1) VH: QVQLVQSGAEVKKPGASVKVSCKASGFNIKDYYMHWVRQAPGQRLEWMGWIDLENANTIYDAKFQGRVTITRDTSASTAYMELSSLRSEDTAVYYCGRDAYGRYFYDVWGQGTLVTVSS VL: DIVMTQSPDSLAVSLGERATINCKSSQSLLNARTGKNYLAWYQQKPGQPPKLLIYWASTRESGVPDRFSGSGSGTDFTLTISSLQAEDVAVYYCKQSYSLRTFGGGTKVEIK
Result: 50

Ask: Give the reported value of Kd for this record: Antibody No. V002 (ADI-67445) Fab (Fab, V domains shown, Fab by papain digestion of the IgG1) VH: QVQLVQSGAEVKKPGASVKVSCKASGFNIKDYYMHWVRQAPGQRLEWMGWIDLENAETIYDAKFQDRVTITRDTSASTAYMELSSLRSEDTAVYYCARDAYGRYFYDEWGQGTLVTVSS VL: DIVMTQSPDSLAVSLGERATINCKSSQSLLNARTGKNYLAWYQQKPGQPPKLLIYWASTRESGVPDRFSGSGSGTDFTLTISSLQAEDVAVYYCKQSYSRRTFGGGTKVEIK
Result: 12
